# test-target: human cloned CHRM4 receptor (M4_CHO cells) (Homo sapiens)
# Construct: expressed in transfected cells; host or cells: CHO-K1
# Sequence (P08173 1-479): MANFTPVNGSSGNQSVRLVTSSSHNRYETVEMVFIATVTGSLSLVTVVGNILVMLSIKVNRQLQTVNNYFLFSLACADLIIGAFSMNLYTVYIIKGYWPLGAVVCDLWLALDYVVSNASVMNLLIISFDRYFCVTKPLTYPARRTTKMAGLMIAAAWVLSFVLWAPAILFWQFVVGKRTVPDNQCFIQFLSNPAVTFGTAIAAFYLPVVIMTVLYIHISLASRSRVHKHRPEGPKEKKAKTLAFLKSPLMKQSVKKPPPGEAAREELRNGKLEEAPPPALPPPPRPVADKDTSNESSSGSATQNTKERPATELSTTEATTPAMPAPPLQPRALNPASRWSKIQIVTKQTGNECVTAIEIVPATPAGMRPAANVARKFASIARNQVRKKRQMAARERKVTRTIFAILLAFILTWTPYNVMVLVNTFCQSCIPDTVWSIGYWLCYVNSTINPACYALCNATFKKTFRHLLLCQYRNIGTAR
# experimental-protocol: CHRM4 Ca++ Flux Assay (agonist mode, FDSS 7000EX)
# Type: cell-based
# experimental-context: Percent Activity, read-out: M4 FDSS PA
Assignment: determine reported Emax for the given compounds.
One number for each entry, in %.

# compound, unit-of-measurement, measured-value
data = [
    ("c1ccc(C2CCN([C@@H]3CCC4(C3)CN(c3cncnc3)C4)CC2)c(O[C@@H]2CCOC2)c1 [Example 1P]", "%", 61),
    ("N#CCCOc1ccccc1C1CCN([C@@H]2CCC3(C2)CN(C(=O)C2COC2)C3)CC1 [Example 7D]", "%", 57),
    ("COCCOc1ccccc1C1CCN([C@@H]2CCC3(C2)CN(c2ncns2)C3)CC1 [Example 3J]", "%", 57),
]

Switching to the query record.
query: Recorded Emax of CC(C)(O)CCOc1ccccc1C1CCN([C@@H]2CCC3(C2)CN(c2nncs2)C3)CC1 [Example 3H] , please.
result: 48
